Test: In vivo biodistribution in mice
Parameters: species or system normal CD-1 male mice
Conditions: iv, 2 min post injection
Biodistribution: Blood listing for selected compounds.
Write the figure, then the unit, nothing else.

Record summary for [18F-].[Na+] [[^18F]NaF, reference compound] : reported Biodistribution: Blood = 5.56 ± 0.37 % dose/g

***
Record summary for O=C([O-])CN(CCN(CC(=O)[O-])Cc1cc(CCC(=O)NC(P(=O)(O)O)P(=O)(O)O)ccc1[O-])Cc1cc(CCC(=O)NCC(=O)O)ccc1[O-].[68Ga+3] [[^68Ga]1c] : reported Biodistribution: Blood = 11.7 ± 0.55 % dose/g

Record summary for C[C@H](NC(=O)CCc1ccc([O-])c(CN(CCN(CC(=O)[O-])Cc2cc(CCC(=O)NC(P(=O)(O)O)P(=O)(O)O)ccc2[O-])CC(=O)[O-])c1)C(=O)O.[68Ga+3] [[^68Ga]1d] : reported Biodistribution: Blood = 9.08 ± 0.58 % dose/g

----------
Biodistribution: Heart listing for selected compounds.
Assay: In vivo biodistribution in mice
Design: species or system normal CD-1 male mice
Details: iv, 30 min (0.5 hr) post injection
# value in % dose/g; strip the unit string

Record summary for O=C([O-])CN(CCN(CC(=O)[O-])Cc1cc(CCC(=O)NC(P(=O)(O)O)P(=O)(O)O)ccc1[O-])Cc1cc(CCC(=O)NC2C(O)OC(CO)C(O)C2O)ccc1[O-].[68Ga+3] (stereo not shown) [[^68Ga]1b] : reported Biodistribution: Heart = 0.62

Record summary for O=C([O-])CN1CCN(CC(=O)[O-])CCN(CC(=O)NCCNC(=O)CCc2ccc(O)c(CN(CCN(CC(=O)O)Cc3cc(CCC(=O)NC(P(=O)(O)O)P(=O)(O)O)ccc3O)CC(=O)O)c2)CCN(CC(=O)[O-])CC1.[177Lu+3] [[^177Lu]1h] : reported Biodistribution: Heart = 0.23

***
Record summary for O=C([O-])CN(CCN(CC(=O)[O-])Cc1cc(CCC(=O)NC(P(=O)(O)O)P(=O)(O)O)ccc1[O-])Cc1cc(CCC(=O)NCCCNC(=O)CCc2ccc(O)c(CN(CCN(CC(=O)O)Cc3cc(CCC(=O)NC(P(=O)(O)O)P(=O)(O)O)ccc3O)CC(=O)O)c2)ccc1[O-].[68Ga+3] [[^68Ga]3] : reported Biodistribution: Heart = 2.02

Record summary for O=C(O)CN1CCN(CC(=O)O)CCN(CC(=O)NC(P(=O)(O)O)P(=O)(O)O)CCN(CC(=O)O)CC1.[68Ga] [[^68Ga]BPAMD, reference compound] : reported Biodistribution: Heart = 0.29

----------
Biodistribution: Muscle listing for selected compounds.
Assay: In vivo biodistribution in mice
Design: species or system normal CD-1 male mice
Conditions: iv, 30 min (0.5 hr) post injection
# value in % dose/g; strip the unit string

Record summary for O=C([O-])CN(CCN(CC(=O)[O-])Cc1cc(CCC(=O)O)ccc1[O-])Cc1cc(CCC(=O)O)ccc1[O-].[68Ga+3] [[^68Ga]HBED-CC, reference compound] : reported Biodistribution: Muscle = 0.32

Record summary for O=C([O-])CN(CCN(CC(=O)[O-])Cc1cc(CCC(=O)NC(P(=O)(O)O)P(=O)(O)O)ccc1[O-])Cc1cc(CCC(=O)NCCNC(=O)CN2CCN(CC(=O)O)CCN(CC(=O)O)CCN(CC(=O)O)CC2)ccc1[O-].[68Ga+3] [[^68Ga]1h] : reported Biodistribution: Muscle = 0.14

Record summary for O=C([O-])CN(CCN(CC(=O)[O-])Cc1cc(CCC(=O)NC(P(=O)(O)O)P(=O)(O)O)ccc1[O-])Cc1cc(CCC(=O)NCCCCCC(=O)NCCCC[C@H](NC(=O)N[C@@H](CCC(=O)O)C(=O)O)C(=O)O)ccc1[O-].[68Ga+3] [[^68Ga]1g] : reported Biodistribution: Muscle = 0.35

***
Record summary for O=C([O-])CN(CCN(CC(=O)[O-])Cc1cc(CCC(=O)NC(P(=O)(O)O)P(=O)(O)O)ccc1[O-])Cc1cc(CCC(=O)NC(P(=O)(O)O)P(=O)(O)O)ccc1[O-].[68Ga+3] [[^68Ga]2] : reported Biodistribution: Muscle = 0.32

Record summary for O=C([O-])CN1CCN(CC(=O)[O-])CCN(CC(=O)NCCNC(=O)CCc2ccc(O)c(CN(CCN(CC(=O)O)Cc3cc(CCC(=O)NC(P(=O)(O)O)P(=O)(O)O)ccc3O)CC(=O)O)c2)CCN(CC(=O)[O-])CC1.[177Lu+3] [[^177Lu]1h] : reported Biodistribution: Muscle = 0.39

Record summary for O=C([O-])CN(CCN(CC(=O)[O-])Cc1cc(CCC(=O)N[C@@H](CC(=O)O)C(=O)O)ccc1[O-])Cc1cc(CCC(=O)NC(P(=O)(O)O)P(=O)(O)O)ccc1[O-].[68Ga+3] [[^68Ga]1e] : reported Biodistribution: Muscle = 0.25
